Measured IC50 by item
Target: DNA-dependent protein kinase catalytic subunit (Homo sapiens)
Sequence (P78527 whole entry): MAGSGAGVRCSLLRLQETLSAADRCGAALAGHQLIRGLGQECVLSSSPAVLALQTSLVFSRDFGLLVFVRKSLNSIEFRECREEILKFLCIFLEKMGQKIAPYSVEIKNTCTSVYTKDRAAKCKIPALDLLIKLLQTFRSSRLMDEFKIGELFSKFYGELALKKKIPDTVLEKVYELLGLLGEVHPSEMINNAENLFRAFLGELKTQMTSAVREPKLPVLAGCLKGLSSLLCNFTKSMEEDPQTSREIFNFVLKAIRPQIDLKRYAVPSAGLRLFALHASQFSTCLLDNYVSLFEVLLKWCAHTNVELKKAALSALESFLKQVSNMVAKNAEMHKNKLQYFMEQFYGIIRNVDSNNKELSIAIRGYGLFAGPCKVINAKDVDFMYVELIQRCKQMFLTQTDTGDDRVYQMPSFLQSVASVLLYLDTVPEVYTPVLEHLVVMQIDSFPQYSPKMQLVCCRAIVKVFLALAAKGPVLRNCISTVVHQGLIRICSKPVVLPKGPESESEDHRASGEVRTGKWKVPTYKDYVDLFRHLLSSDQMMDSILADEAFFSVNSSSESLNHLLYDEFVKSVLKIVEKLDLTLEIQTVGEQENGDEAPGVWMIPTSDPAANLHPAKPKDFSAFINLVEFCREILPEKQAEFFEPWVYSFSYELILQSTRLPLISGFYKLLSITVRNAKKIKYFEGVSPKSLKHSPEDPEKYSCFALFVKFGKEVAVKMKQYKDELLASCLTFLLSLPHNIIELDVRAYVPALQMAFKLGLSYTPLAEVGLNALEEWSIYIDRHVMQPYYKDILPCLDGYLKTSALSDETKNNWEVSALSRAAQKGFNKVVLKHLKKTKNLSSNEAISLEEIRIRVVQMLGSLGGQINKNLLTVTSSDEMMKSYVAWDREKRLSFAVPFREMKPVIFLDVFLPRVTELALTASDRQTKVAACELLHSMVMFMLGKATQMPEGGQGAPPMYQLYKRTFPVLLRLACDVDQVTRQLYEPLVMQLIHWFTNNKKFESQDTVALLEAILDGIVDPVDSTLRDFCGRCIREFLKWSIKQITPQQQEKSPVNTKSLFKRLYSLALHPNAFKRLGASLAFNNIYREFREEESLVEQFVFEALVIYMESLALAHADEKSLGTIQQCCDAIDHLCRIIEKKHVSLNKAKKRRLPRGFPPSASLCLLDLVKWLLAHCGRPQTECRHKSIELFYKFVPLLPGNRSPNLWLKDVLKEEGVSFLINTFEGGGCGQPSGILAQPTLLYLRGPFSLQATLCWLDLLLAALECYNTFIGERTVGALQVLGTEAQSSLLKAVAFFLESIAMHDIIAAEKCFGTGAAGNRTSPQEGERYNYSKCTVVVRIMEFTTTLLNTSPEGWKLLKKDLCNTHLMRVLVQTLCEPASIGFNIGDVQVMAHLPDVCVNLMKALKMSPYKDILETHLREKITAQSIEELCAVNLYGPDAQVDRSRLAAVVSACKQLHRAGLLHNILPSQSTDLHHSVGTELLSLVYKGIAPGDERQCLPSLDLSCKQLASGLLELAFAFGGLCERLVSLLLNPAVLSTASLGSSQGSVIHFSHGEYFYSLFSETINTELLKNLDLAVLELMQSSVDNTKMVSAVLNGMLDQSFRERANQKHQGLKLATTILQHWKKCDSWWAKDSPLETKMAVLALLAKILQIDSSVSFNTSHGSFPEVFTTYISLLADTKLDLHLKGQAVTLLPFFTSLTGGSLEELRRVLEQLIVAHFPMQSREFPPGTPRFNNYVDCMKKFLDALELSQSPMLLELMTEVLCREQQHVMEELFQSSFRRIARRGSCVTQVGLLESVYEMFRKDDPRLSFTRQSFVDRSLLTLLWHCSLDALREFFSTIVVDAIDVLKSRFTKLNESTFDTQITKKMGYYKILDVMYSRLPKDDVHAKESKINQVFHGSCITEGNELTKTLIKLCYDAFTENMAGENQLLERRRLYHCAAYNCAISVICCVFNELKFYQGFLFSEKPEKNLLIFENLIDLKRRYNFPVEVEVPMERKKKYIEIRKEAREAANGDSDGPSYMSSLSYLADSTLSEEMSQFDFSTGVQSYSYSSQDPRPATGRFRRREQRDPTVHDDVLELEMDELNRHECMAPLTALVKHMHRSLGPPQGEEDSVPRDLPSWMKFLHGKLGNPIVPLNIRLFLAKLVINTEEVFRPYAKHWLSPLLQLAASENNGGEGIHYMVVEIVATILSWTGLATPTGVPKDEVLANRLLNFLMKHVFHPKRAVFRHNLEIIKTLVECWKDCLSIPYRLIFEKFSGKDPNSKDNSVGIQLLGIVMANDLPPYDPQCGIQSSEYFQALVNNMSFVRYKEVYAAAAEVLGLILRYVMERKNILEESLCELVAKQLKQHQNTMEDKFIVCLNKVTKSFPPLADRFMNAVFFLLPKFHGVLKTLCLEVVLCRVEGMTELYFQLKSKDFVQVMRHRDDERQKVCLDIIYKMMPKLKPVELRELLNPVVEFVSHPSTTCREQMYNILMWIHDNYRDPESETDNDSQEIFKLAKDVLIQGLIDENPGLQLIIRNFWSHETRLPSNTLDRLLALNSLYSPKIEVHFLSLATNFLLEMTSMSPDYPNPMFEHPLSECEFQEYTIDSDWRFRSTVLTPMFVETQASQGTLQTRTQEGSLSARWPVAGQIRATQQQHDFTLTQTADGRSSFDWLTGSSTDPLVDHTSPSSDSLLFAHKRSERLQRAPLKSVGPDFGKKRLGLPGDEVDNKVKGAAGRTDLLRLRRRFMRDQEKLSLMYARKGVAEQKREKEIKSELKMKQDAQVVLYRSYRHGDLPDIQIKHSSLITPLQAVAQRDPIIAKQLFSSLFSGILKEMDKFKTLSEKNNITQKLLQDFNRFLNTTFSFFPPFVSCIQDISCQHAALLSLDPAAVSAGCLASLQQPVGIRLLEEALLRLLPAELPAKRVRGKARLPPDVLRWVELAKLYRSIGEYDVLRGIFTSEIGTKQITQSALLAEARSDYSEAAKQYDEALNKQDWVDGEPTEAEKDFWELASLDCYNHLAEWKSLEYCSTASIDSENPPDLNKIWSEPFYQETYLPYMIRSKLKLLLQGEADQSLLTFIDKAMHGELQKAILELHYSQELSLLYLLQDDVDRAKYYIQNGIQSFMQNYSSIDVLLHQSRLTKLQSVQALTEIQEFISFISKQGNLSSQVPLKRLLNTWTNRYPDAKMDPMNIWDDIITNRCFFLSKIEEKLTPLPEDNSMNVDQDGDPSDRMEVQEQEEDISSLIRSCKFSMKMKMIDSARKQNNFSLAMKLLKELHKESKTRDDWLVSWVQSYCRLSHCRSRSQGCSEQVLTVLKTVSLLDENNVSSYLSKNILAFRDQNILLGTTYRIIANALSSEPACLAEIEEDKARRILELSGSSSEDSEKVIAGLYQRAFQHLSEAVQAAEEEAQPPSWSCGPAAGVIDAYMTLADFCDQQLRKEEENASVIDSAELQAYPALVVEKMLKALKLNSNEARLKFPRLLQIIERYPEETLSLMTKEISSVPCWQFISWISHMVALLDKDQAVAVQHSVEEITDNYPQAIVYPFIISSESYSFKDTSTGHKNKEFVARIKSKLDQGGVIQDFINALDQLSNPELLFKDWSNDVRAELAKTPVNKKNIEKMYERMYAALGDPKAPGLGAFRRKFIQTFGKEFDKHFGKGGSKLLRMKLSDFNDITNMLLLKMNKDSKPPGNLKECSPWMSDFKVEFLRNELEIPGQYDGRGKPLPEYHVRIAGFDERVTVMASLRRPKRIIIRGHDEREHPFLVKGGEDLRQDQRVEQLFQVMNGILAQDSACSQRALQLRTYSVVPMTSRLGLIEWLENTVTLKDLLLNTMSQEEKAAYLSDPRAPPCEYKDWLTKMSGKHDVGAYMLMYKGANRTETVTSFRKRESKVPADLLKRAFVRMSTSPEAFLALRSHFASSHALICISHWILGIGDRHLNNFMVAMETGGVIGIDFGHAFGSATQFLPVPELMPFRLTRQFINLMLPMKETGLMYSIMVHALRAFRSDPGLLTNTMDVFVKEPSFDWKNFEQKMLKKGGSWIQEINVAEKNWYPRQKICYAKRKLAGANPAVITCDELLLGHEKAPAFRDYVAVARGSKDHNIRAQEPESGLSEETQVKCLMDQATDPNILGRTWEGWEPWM
Test: Inhibition of human DNA-PK by non-radiometric ADP-Glo assay
Use nM as the unit, but write only the number.

COMPOUND STRUCTURE STRING: COc1ccc2c(c1OC)N=C(NC(=O)c1cccnc1)N1CCN=C21
IC50 [nM]: 13

COMPOUND STRUCTURE STRING: O=C1NC(=S)S/C1=C/c1ccc2c(c1)N(Cc1ccc(F)c(Cl)c1)C(=O)CO2
IC50 [nM]: 1500

Now consider a different compound.
Ask: Return the recorded IC50 value; entry: CC(=O)Nc1nc(C)c(-c2ccc(Cl)c(S(=O)(=O)NCCO)c2)s1
Result: 64
